For each record, write down the corresponding cytotoxicity at 70.5 h.
assay: Human HepG2 cell viability assay in 384 well format; format: toxicity, cell-based; set-up: dose 125 nL, time 70.5 hour; concentration not given beside the values; settings: HepG2 cells, read-out: Inhibition
Please respond with the number in % and leave the unit unwritten.

Task: I would be grateful if you could share the reported cytotoxicity at 70.5 h for CC(O)CN1CCN(C(=O)c2ccc(N(C)C)nc2)CC1 (stereo not given) .
Result: 12

Task: Then what about the compound CCc1ccc(CN2CCC3(CC(C(=O)NCC(C)C)=NO3)C2)o1 (stereo not given) ?
Result: -7.77

Task: Would you kindly repeat that for O=C1CCCN1Cc1nnc2n1CCN(Cc1ccco1)C2 ?
Result: 2.02

Task: Next record, please: O=C(CCCn1cccn1)N1C[C@@H](O)[C@H](Oc2cccc(F)c2)C1
Result: 3.04

Task: How about this compound: COc1ccc(Cl)cc1NCC(=O)N(Cc1ccccn1)C1CC1
Result: -4.9

====

assay: Human HepG2 cell viability assay in 384 well format; format: toxicity, cell-based; design: dose 125 nL, time 70.5 hour; concentration not given beside the values; conditions: HepG2 cells, read-out: Inhibition
For each of the compounds below, state its cytotoxicity at 70.5 h.
Please reply with the bare figure in % and do not write the unit itself.

Task: Any idea what cytotoxicity at 70.5 h was measured for O=C1N(Cc2ccccn2)C[C@H]2CN(S(=O)(=O)c3ccccc3)CCN12 ?
Result: -0.174

Task: Same question for CCCn1cc(-c2ccnc(NC3CCc4ccccc4C3)n2)c(C)n1 (stereo unspecified) please.
Result: 19.3

Task: And the next one, Cc1nc(NC(=O)CN2CCOC(Cn3cccn3)C2)sc1C (stereo unspecified) ?
Result: -7.06

Task: Note, next up: Cc1nn(CC(=O)Nc2ccon2)c(C)c1Br
Result: -11.8

Task: Follow-up item: Cn1cnc2c1CCN(CCCS(=O)(=O)c1ccccc1)C2
Result: 24.3

Task: Same for O=C(c1ccco1)N1CCC2(CCC(=O)N2Cc2ccncc2)CC1
Result: -2.64

Task: Next: O=C(NCCc1nnc2n1CCCCC2)N1CCC2(CCCC2)CC1
Result: -7.24

Task: Field entry: c1cnc(NC2COC3(CCN(Cc4nccs4)CC3)C2)cn1 (stereo unspecified)
Result: -8.19

Task: Next entry: COCCc1nc(CN2CC(C)(c3ccccc3)CCC2=O)no1 (stereo unspecified)
Result: -2.58

Task: One more compound: O=C1N(CC2CC2)CCC12CCN(CC1CC1)CC2
Result: -6.9

Task: Ok, now O=C(Nc1cc(C2CCOCC2)[nH]n1)c1cc[nH]n1
Result: -4.17

Task: And CO[C@H]1C[C@@H](O)C12CCN(CCOc1ccc(Cl)cc1)CC2 ?
Result: -1.42

Task: Another compound to look at: Cn1cc(-c2cnc(-c3ccnn3C)nc2)cc1C(=O)NC1CC1
Result: -4.34

Task: Please do the same for CSc1ccsc1C(=O)NCCNC(=O)C1CC1 as well.
Result: -6.91

Task: Now this one: CCC(C)N(Cc1c[nH]c(C)n1)Cc1ccccc1Cl (stereo unspecified)
Result: -8.23

Task: Next up: COCCN(CCOC)c1ncc(C#N)cc1Cl
Result: -15.8

Task: Let us now turn to CCCOc1ccc(OCCN2CCOCS2(=O)=O)cc1
Result: -10.3

Task: Would you kindly repeat that for O=C(CN1CCc2sccc2C1)Nc1nccs1 ?
Result: -18.3

Task: One more compound: Cc1ccc(CN2CCn3cc(CN(C)Cc4ccco4)nc3C2)o1
Result: 0.0869

Task: Same again, this time with COCCN(C)C(=O)Nc1ccc2c(ccn2CC(=O)N(C)C)c1
Result: -3.43

Task: Item: CN(Cc1ccc(F)cc1F)Cc1cc2c(cc1Br)OCCO2
Result: -6.67

Task: Try this compound next: COc1ccc(CC(=O)N2CCCC(n3nc(C)cc3C)C2)cc1F (stereo unspecified)
Result: -9.02

Task: Further, for CC[C@H]1CN2CC[C@H]1C[C@@H]2CNCc1ccc2c(c1)OCO2 ?
Result: -5.69

Task: Moving on to COCCn1ccnc1CN(Cc1ccccn1)CC(C)C
Result: -6.56

Task: Also check CCOC(=O)C1(Cc2ccc(Cl)cc2)CCN(Cc2ncc[nH]2)CC1
Result: -10.4

Task: Can you handle CN1C(=O)C(c2cccnc2)CC12CCN(Cc1nccs1)CC2 (stereo unspecified) next?
Result: 1.71

Task: Record: O=C(Nc1ccccc1Oc1cccc(F)c1)NC1CCS(=O)(=O)C1 (stereo unspecified)
Result: 2.26

Task: Try this compound next: CSc1nccc(N2CCC3(CCCN(Cc4ccc(F)cc4)C3)C2)n1 (stereo unspecified)
Result: -3.25

Task: Entry to check: Cc1ccc(-c2nnc(CN3CCOC(Cn4cncn4)C3)o2)cc1 (stereo unspecified)
Result: -5.3

Task: Likewise for Cc1cc(C)n(CC(C)NCc2nc(-c3cccnc3)no2)n1 (stereo unspecified) ?
Result: -6.9

Task: Repeat with COC(=O)Cn1c(=O)nc2n1C(=O)N(c1ccc(Br)cc1)C2
Result: 10.9

Task: What about CN(Cc1ccccn1)CC1CCCN1c1cccnn1 (stereo unspecified) ?
Result: -5.71

Task: Please answer likewise for CC(=O)N1CCC2(CC1)CN(C(=O)[C@@H]1CSCN1)c1ccc(Cl)cc12
Result: 1.24

Task: Another compound: O=S(=O)(c1ccc(Cl)s1)N1CCCn2ncnc21
Result: -1.11

Task: Moving on to CNC(=O)c1sc(C(NC(=O)c2ccccc2)C2CC2)nc1C (stereo unspecified)
Result: -4.95

Task: Request: Cc1cnn(CC2CCCN2Cc2noc(C(C)C)n2)c1 (stereo unspecified)
Result: -5.54

Task: Repeat for the following compound: CN(C)CCCn1ccc(-c2cccc(-c3ccccn3)c2)n1
Result: 15.8

Task: And for CC(C)S(=O)(=O)NCC1CCCN(C(=O)c2cccnc2)C1 (stereo unspecified) ?
Result: -7.06

Task: What about CCS(=O)(=O)NC(CCSC)C(=O)Nc1cccc(C)c1C (stereo unspecified) ?
Result: -83.4

Task: Now this one: O=C(c1cc(-n2cnnn2)ccc1Cl)N1CCOCC1
Result: -21.4

Task: Moving on to the next compound: O=C1CC[C@H]2[C@H](CCN2c2ncc(F)cn2)N1c1cccnc1
Result: -6.96
